- study target: cathepsin L (Homo sapiens)
- Sequence (P07711 114-333, species assumed): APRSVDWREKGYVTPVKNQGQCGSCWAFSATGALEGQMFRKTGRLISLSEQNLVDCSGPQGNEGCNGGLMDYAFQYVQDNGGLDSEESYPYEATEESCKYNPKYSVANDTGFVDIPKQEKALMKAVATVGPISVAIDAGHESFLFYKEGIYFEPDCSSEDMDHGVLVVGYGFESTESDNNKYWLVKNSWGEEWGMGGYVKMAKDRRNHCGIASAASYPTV
- experiment summary: Inhibitory activity assay against cathepsin L (enzyme assay)
- Type: biochemical
- cond: Z-Phe-Arg-AMC 2 μM, enzyme 3 nM, pH 5.5, 30 minutes
Let's look at some compounds and their measured IC50.
Please state the figure in nM; there is no need to write the unit.

structure as smiles: CCN1CCN(c2ccc(-c3ccc(NC(=O)NC4(c5ccnc(C#N)n5)CCCCC4)cc3)cc2)CC1
readout kind: IC50
units text: nM
observed value: 8810

Task: Request: IC50, test system cathepsin L (Homo sapiens), entry N#Cc1nccc(C2(NC(=O)Nc3ccc(-c4ccc(C(=O)N5CCCC5)c(Cl)c4)cc3)CCCCC2)n1
Output: 8920
